# test_target: X-box binding protein 1 (human) (UniProt P17861)
# Sequence (P17861 whole entry): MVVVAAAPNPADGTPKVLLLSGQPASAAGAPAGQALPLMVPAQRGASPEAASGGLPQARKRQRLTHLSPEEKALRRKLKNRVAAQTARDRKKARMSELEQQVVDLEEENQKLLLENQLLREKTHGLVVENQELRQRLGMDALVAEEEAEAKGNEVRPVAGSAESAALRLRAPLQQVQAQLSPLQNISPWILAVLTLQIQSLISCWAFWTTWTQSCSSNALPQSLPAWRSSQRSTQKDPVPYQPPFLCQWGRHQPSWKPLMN
# experiment_summary: FRET or BRET; direct-binding FRET in 384-well plates; rhodamine-labelled design (acceptor) titrated 0 to 1 uM into 10 nM fluorescein-labelled bZIP (donor); 150 mM KCl, 50 mM potassium phosphate pH 7.4, 0.1% Tween-20, 0.1% BSA; 4 °C
pKd: −log10 of the molar value. Where no end group is shown, it is not given here.
experimental_readout: pKd

In: Quick one: pKd of ATF5-d1 labeled at the N-terminus (designed binder) GESKEYKKGSGSC(Rhodamine Red C2‑maleimide)GKRIAYLRQRIAELRNENHVLESRIQRMEKEKDALQQDRDHLEYEL ?
Out: < 5.30
